Biological target: T1, cyno ENTPD2 expressed on NIH/3T3 cells (cynomolgus macaque, UniProt Q9Y5L3 1-495 (human entry))
T1 chain: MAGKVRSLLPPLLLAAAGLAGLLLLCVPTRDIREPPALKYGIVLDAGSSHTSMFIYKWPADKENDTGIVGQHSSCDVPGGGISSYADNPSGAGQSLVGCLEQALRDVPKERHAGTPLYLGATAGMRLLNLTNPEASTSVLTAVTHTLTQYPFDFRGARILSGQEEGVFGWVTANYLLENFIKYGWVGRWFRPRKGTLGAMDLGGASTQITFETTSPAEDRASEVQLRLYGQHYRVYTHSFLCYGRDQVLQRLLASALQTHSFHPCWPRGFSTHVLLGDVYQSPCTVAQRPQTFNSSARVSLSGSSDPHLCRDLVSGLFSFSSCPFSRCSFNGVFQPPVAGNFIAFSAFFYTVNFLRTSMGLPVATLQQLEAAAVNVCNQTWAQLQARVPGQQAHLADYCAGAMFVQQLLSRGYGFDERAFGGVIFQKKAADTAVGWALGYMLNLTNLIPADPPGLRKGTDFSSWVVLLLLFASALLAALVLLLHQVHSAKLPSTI
Assay: cell-based or functional assay
metric.name: % inhibition, Cyno ENTPD2 NIH/3T3 Assay (%)
// units = %; emit number, no label

[Q] Would you mind telling me what % inhibition, Cyno ENTPD2 NIH/3T3 Assay value was observed for ANTI-HUMAN ENTPD2 MAB16 (antibody, human IgG1, kappa, V domains shown) VH: DIQLQESGPGLVKPSQSLSLTCSVTGYSITSGYYWNWIRQFPGNKLEWMGYISYDGDNNYNPSLKNRISITRDTSKNQFFLKLSSVTTEDTATYYCAGGYYRYGLSYYYVMDYWGQGTSVTVSS VL: DTVLTQSPASLAVSLGQRATISCKASQSVDYDGNSYMNWYQQKPGQPPKLLIYAASNLESGIPARFSGSGSGTDFTLNIHPVEEEDAATYYCQQSNEDPPTFGGGTKLEIKR ?
[A] 5

[Q] Param item: ANTI-HUMAN ENTPD2 MAB3 (antibody, human IgG1, kappa, V domains shown, humanized from mAb17; human IgG1, kappa; also called Anti-ENTPD2 mAb3) VH: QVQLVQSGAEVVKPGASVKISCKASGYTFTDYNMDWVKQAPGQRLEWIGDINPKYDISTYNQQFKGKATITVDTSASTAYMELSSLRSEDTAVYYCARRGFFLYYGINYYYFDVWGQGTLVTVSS VL: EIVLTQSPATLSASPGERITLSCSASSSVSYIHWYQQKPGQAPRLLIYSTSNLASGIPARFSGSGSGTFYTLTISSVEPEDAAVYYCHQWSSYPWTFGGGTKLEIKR
[A] 84

[Q] Param item: ANTI-HUMAN ENTPD2 MAB6 (antibody, human IgG1, kappa, V domains shown, humanized and optimized from mAb16; human IgG1, kappa; also called Anti-ENTPD2 mAb6) VH: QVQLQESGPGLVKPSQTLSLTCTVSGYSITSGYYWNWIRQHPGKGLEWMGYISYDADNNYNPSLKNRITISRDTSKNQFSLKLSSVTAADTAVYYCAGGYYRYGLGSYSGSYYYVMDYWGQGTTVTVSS VL: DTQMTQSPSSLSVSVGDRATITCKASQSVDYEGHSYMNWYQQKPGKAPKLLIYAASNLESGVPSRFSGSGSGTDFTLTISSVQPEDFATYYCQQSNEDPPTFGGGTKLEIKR
[A] 73

[Q] Param item: ANTI-HUMAN ENTPD2 MAB18 (antibody, human IgG1, kappa, V domains shown) VH: DIQLQESGPGLVKPSQSLSLTCSVTGYSITSGYYWNWIRQFPGNKLEWMGYISYDGDNNYNPSLKNRISITRDTSKNQFFLKLSSVTTEDTATYYCAGGYYRYGLGSYSGSYYYVMDYWGQGTSVTVSS VL: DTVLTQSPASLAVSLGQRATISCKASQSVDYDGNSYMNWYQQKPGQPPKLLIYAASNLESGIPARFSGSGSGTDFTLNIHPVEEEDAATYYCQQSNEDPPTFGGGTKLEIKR
[A] 68

[Q] Param item: ANTI-HUMAN ENTPD2 MAB4 (antibody, human IgG1, kappa, V domains shown, humanized and optimized from mAb16; human IgG1, kappa; also called Anti-ENTPD2 mAb4) VH: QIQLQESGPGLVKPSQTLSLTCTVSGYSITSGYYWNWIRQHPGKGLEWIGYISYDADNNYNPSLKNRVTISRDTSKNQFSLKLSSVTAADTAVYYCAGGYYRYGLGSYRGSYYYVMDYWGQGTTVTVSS VL: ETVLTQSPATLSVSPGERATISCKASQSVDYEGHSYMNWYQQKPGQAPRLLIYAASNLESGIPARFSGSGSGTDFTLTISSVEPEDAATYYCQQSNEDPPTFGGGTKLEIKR
[A] 75
